Origin of values: PubChem BioAssay AID372

Target: Gag-Pol polyprotein (Human immunodeficiency virus type 1 group M subtype B (isolate HXB2)) (UniProt P04585)
Experiment: RNase H inhibition, HIV 1 Gag Pol polyprotein, FRET biochemical assay, screening (AID 372)
Details: HIV-1 RT RNase H, FRET RNA/DNA substrate fluorescence; at 10 µM; active compounds read high
About 770 (0.77%) of roughly 100,000 compounds were called active. What follows is part of a selection rich in actives, with near analogues and random picks from the rest.
Could you label it satisfied if measured inhibition is 8% or higher, and not satisfied otherwise?

compound=C=CCc1cccc2cc(C(=O)NNC(=O)CC#N)c(=O)oc12 category_label=satisfied
compound=Nc1c(Cl)cc(Br)c2c1C(=O)c1ccccc1C2=O category_label="not satisfied"
compound=CCCCCCCC(=O)NNC(=O)c1cccs1 category_label="not satisfied"
compound=CCOc1ccc(C(=O)NCc2cccnc2)cc1Br category_label="not satisfied"
compound=Cc1cccc(C)c1NC(=O)c1ccc(-c2ccc(Cl)cc2Cl)o1 category_label=satisfied
compound="CCOC(=O)C1=C(C)N=c2s/c(=C\\c3ccc(-c4ccc(Cl)cc4)o3)c(=O)n2C1c1ccc(OC)cc1OC (configuration not stated)" category_label=satisfied
compound=O=C(COc1ccc(/C=N/NS(=O)(=O)c2ccccc2)cc1)Nc1ccc(F)cc1 category_label="not satisfied"
compound="CC(=O)N1N=C(c2ccc(N(C)C)cc2)CC1c1ccccc1 (configuration not stated)" category_label=satisfied
compound=COc1cccc(C(=O)Nc2ccc(O)c(-c3nc4cc(C)ccc4o3)c2)c1 category_label="not satisfied"
compound=CCCCSc1nnc(-c2ccc(Cl)cc2Cl)o1 category_label="not satisfied"
compound=Cn1c(=O)c(Sc2ccccc2)c(Sc2ccccc2)c2ccccc21 category_label=satisfied
compound=O=C(O)c1cccc(N2C(=O)c3ccc4c5c(ccc(c35)C2=O)CC4)c1 category_label=satisfied
compound=O=C(O)c1cccc(N2C(=O)c3cccnc3C2=O)c1 category_label="not satisfied"
compound=C=CCc1cccc2cc(C(=O)Nc3ccc(C)c(Cl)c3)c(=O)oc12 category_label="not satisfied"
compound="O=C1CC(SC(=NCc2ccc3c(c2)OCO3)Nc2ccccc2)C(=O)N1 (configuration not stated)" category_label="not satisfied"
compound=CC(C)c1ccccc1OCCCN1CCCC1 category_label="not satisfied"
compound=Cc1ccc2nc3c(N)c(Cl)cc4c3c(c2c1)-c1ccccc1C4=O category_label=satisfied
compound="CCOC(=O)C1=C(C)N=c2s/c(=C\\c3ccc(-c4ccc(Cl)cc4Cl)o3)c(=O)n2C1c1ccc(OC)cc1 (configuration not stated)" category_label=satisfied
compound=Cc1cc(C)c2oc(-c3ccc(C)c(NC(=O)c4cccs4)c3)nc2c1 category_label=satisfied
compound="CCOC(=O)C1=C(C)N=c2s/c(=C\\c3ccc(-c4ccc(Cl)cc4)o3)c(=O)n2C1c1cc(OC)ccc1OC (configuration not stated)" category_label="not satisfied"
